Recorded values, source patent US20240092922A1.

Target: T1, Histidine-tagged human 4-1BB protein (h4-1BB-His) (human, UniProt Q07011 24-186)
T1 construct: not shown: histidine tag
Assay: SPR (Biacore T200), antibody on Protein A chip, h4-1BB-His injected;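 also: dissociation phase followed for 300 s, Kd derived as koff divided by kon from the kinetic fit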
Hi there, I'd appreciate the recorded Kd for every entry that follows.
Provide only the numeric value, understood in nM.

Query block: What does the record list as Kd for 5F9-H3K2-IgG4 (antibody, V domains shown, humanized) VH: QVQLKESGPGLVKPSETLSITCTVSGFSLTTYDISWVRQPPGKGLEWLGVIWTGGGTNYNSSFMSRVTISKDNSKNQVSLKLSSVTAADTAIYYCERVDYWGQGTTLTVSS VL: DVVMTQSPLSLPVTLGQPASISCRSSQSLVHSNGNTYLHWFQQRPGQSPKLLIYKVSNRFSGVPDRFSGSGSGTAFTFKISRVEAEDVGVYYCSQNTHVPWTFGGGTKVEIK ?
Result block: 13.7

Query block: Which value of Kd has been reported for 5F9-H3K3-IgG4 (antibody, V domains shown, humanized) VH: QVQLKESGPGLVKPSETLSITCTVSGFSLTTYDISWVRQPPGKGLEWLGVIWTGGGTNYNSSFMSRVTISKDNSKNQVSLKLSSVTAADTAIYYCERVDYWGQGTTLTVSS VL: DVVMTQSPLSLPVTLGQPASISCRSSQSLVHSNGNTYLHWYQQRPGQSPKLLIYKVSNRFSGVPDRFSGSGSGTAFTFKISRVEAEDVGVYYCSQNTHVPWTFGGGTKLEIK in the records?
Result block: 10.5
